Values compiled from the Biogen ADME set (Fang et al. 2023).

observation-type: intrinsic clearance, human liver microsomes

The compound CCCS(=O)(=O)Nc1ccc(F)c(C(=O)c2c[nH]c3ncc(Cl)cc23)c1F showed intrinsic clearance, human liver microsomes equal to 7.61 mL/min/kg

The compound Cc1sc2ncnc(OCC(=O)NC3CCCCC3)c2c1C showed intrinsic clearance, human liver microsomes equal to 34.8 mL/min/kg

The compound COc1ccc(N2N=C(C)/C(=C(\C)Nc3ccc(S(N)(=O)=O)cc3)C2=O)cc1 showed intrinsic clearance, human liver microsomes equal to 8.92 mL/min/kg

The compound O=C(Nc1nnc2n1CCCC2)c1cscn1 showed intrinsic clearance, human liver microsomes equal to ≤ 4.74 mL/min/kg

The compound O=C(CN1CCSC1=O)N1CCN(Cc2sc3ccccc3c2Cl)CC1 showed intrinsic clearance, human liver microsomes equal to 72.7 mL/min/kg

The compound C#CCN1CCC(c2nc(Cc3noc(C)n3)no2)CC1 showed intrinsic clearance, human liver microsomes equal to ≤ 4.74 mL/min/kg

====

Checkbox rule: MDR1-MDCK efflux ratio lower than 1 = y; MDR1-MDCK efflux ratio not lower than 1 = n.

In: # strict comparison: is reported MDR1-MDCK efflux ratio < 1? input = NC1CCCC(C(=O)N2CCC(c3c[nH]c4ncccc34)CC2)C1 (stereo not drawn)
Out: n

In: # strict comparison: is reported MDR1-MDCK efflux ratio < 1? input = COc1ccc(-c2nc(CN3CCC[C@H](O)C3)no2)cc1
Out: y

In: # strict comparison: is reported MDR1-MDCK efflux ratio < 1? input = OCCCCCn1cc(-c2ccccc2-c2ccco2)nn1
Out: n

In: # strict comparison: is reported MDR1-MDCK efflux ratio < 1? input = CC(C)NC(=O)c1cn(-c2ccccc2)nc1-c1ccccc1
Out: y

In: # strict comparison: is reported MDR1-MDCK efflux ratio < 1? input = COCc1noc(CNC(=O)N(C)[C@@H](C)c2ccccc2)n1
Out: n

In: # strict comparison: is reported MDR1-MDCK efflux ratio < 1? input = CCCCCCNc1ncnc2[nH]ccc12
Out: y

In: # strict comparison: is reported MDR1-MDCK efflux ratio < 1? input = Cc1cccc(/C=N/Nc2cc(N3CCOCC3)nc(OCCc3ccccn3)n2)c1
Out: y

In: # strict comparison: is reported MDR1-MDCK efflux ratio < 1? input = Cn1cnnc1CCn1ccnc1-c1cc2ccccc2s1
Out: n

In: # strict comparison: is reported MDR1-MDCK efflux ratio < 1? input = COc1ccccc1CC(=O)Nc1ncc(C)s1
Out: y

In: # strict comparison: is reported MDR1-MDCK efflux ratio < 1? input = C[C@@H]1CC(=O)Nc2cccc(-c3ccc4c(c3)c(-c3cnn(C)c3)nn4C)c2N1
Out: n

In: # strict comparison: is reported MDR1-MDCK efflux ratio < 1? input = COCC1(CNS(=O)(=O)c2ccccc2)CCC1
Out: y

In: # strict comparison: is reported MDR1-MDCK efflux ratio < 1? input = Cc1ccc(CCNC(=O)N2CC(C)(C)OC(C)(C)C2)cn1
Out: n

In: # strict comparison: is reported MDR1-MDCK efflux ratio < 1? input = COc1cccc(Oc2ccc(NC(=O)CN3CCCCC3=O)cn2)c1
Out: n

In: # strict comparison: is reported MDR1-MDCK efflux ratio < 1? input = COc1cccc(Cn2cnc3c(c2=O)COCC3)c1Cl
Out: y

In: # strict comparison: is reported MDR1-MDCK efflux ratio < 1? input = Cc1cc(C)c(NC(=O)CN(C)c2ccc(C#N)nc2)c(C)c1
Out: n

In: # strict comparison: is reported MDR1-MDCK efflux ratio < 1? input = C=C(C)COc1cccc(C(=O)NCc2nncn2C2CCCCC2)c1
Out: n

In: # strict comparison: is reported MDR1-MDCK efflux ratio < 1? input = CCOC(=O)c1cccnc1-c1cccc2ccnn12
Out: y

In: # strict comparison: is reported MDR1-MDCK efflux ratio < 1? input = CC(C)(C)NC(=O)NCCn1nc2c(cc1=O)CCCC2
Out: n

In: # strict comparison: is reported MDR1-MDCK efflux ratio < 1? input = COc1cncc(-c2ccnc3[nH]ccc23)c1
Out: y

In: # strict comparison: is reported MDR1-MDCK efflux ratio < 1? input = Cc1nc2cc(-c3nccn3C)nn2c(NCc2cccnc2)c1C
Out: n

In: # strict comparison: is reported MDR1-MDCK efflux ratio < 1? input = O=C1NC2(CCCCC2)C(=O)N1Cc1csc(-c2ccccc2)n1
Out: n

In: # strict comparison: is reported MDR1-MDCK efflux ratio < 1? input = COc1cc2c(cc1OC)[C@@H]1CC(=O)[C@@H](CC(C)C)CN1CC2
Out: y

In: # strict comparison: is reported MDR1-MDCK efflux ratio < 1? input = CCS(=O)(=O)N(C)c1ccc(N(C)C)cc1
Out: y

In: # strict comparison: is reported MDR1-MDCK efflux ratio < 1? input = OCC1CN(c2nc3cc(F)ccc3o2)C1
Out: y

In: # strict comparison: is reported MDR1-MDCK efflux ratio < 1? input = CC(C)C(=O)Nc1ncn(Cc2cccnc2)n1
Out: n

In: # strict comparison: is reported MDR1-MDCK efflux ratio < 1? input = CCn1cc(C2CCN(Cc3ccc(C#N)cc3)CC2)cn1
Out: y

In: # strict comparison: is reported MDR1-MDCK efflux ratio < 1? input = CN[C@@H](C)C(=O)N[C@H](C(=O)N1CCC[C@H]1C(=O)Nc1snnc1-c1ccccc1)C1CCCCC1
Out: n

In: # strict comparison: is reported MDR1-MDCK efflux ratio < 1? input = C[C@H]1CN2C[C@H](O)C[C@@H]2CN1Cc1cccc2ccccc12
Out: n

In: # strict comparison: is reported MDR1-MDCK efflux ratio < 1? input = Cn1cc(CCNc2cncc(Br)c2)cn1
Out: y

In: # strict comparison: is reported MDR1-MDCK efflux ratio < 1? input = Cc1cccc(O[C@H]2CN(Cc3ccc(OCCCO)cc3)C[C@@H]2O)c1
Out: n

In: # strict comparison: is reported MDR1-MDCK efflux ratio < 1? input = CSCC[C@@H](CO)n1ccnc1-c1oc2ccccc2c1C
Out: n

In: # strict comparison: is reported MDR1-MDCK efflux ratio < 1? input = CCc1cnc(NCc2ccc(CN3CCCC3)cc2)nc1
Out: n

In: # strict comparison: is reported MDR1-MDCK efflux ratio < 1? input = Cn1cc(C(C)(C)NC(=O)C#Cc2ccc3c(c2)OCO3)cn1
Out: n

In: # strict comparison: is reported MDR1-MDCK efflux ratio < 1? input = COc1cc(-c2ccc(Cn3nc(C)cc3C)cn2)cc(OC)c1OC
Out: n

In: # strict comparison: is reported MDR1-MDCK efflux ratio < 1? input = O=C(Nc1cccc(N2CCNC2=O)c1)C1NCC12CCCC2 (stereo not drawn)
Out: n

In: # strict comparison: is reported MDR1-MDCK efflux ratio < 1? input = CCOC(=O)c1cc2ccccc2n1CC(=O)c1ccc(F)cc1
Out: y

In: # strict comparison: is reported MDR1-MDCK efflux ratio < 1? input = CNC(=O)N1CCc2nc3ccc(Cl)cn3c(=O)c2C1
Out: n

In: # strict comparison: is reported MDR1-MDCK efflux ratio < 1? input = CCNC(=O)C1CN(c2nc(C3CC3)nc3c2CCC3)C1
Out: n

In: # strict comparison: is reported MDR1-MDCK efflux ratio < 1? input = CNC(=O)c1cccc(NC(=O)N2CCC(Oc3ccccc3Cl)CC2)c1
Out: n

In: # strict comparison: is reported MDR1-MDCK efflux ratio < 1? input = Cc1nc(CCN2C(=O)NC(C)(C)C2=O)cs1
Out: n

In: # strict comparison: is reported MDR1-MDCK efflux ratio < 1? input = COc1cccc(C(=O)N(C)CC(F)(F)F)c1OCCCN
Out: n

In: # strict comparison: is reported MDR1-MDCK efflux ratio < 1? input = O=C1CN(C(=O)c2ccc(Cl)cn2)CCN1CCc1ccccc1
Out: n

In: # strict comparison: is reported MDR1-MDCK efflux ratio < 1? input = CN(C)S(=O)(=O)CCCN1CCC(CCC(N)=O)CC1
Out: y

In: # strict comparison: is reported MDR1-MDCK efflux ratio < 1? input = O=C1CCCN1CCc1nc(-c2ccc3[nH]c(=O)oc3c2)cs1
Out: n

In: # strict comparison: is reported MDR1-MDCK efflux ratio < 1? input = CS(=O)(=O)N1CCc2cc(C(=O)NCCOc3ccc4ccccc4c3)ccc21
Out: n

In: # strict comparison: is reported MDR1-MDCK efflux ratio < 1? input = O=C(CN1CCCC1=O)NCC1(CO)CCCC1
Out: n

In: # strict comparison: is reported MDR1-MDCK efflux ratio < 1? input = CS(=O)(=O)c1ccc(-c2nnc(/C=C/c3nnc(-c4ccc(C#N)cc4)o3)n2-c2ccccc2Cl)nc1
Out: n

In: # strict comparison: is reported MDR1-MDCK efflux ratio < 1? input = Cc1ccc(S(=O)(=O)N2CCOc3ccncc32)cc1
Out: y
